B1: NET1 (parent)
chain: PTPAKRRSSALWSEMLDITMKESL

# Variants of: B1
# assay text: protein stability index of a GFP-peptide fusion (GPS, HEK-293T) (PSI 1-6); higher = more stable;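 further: lentivirally expressed fusions sorted by FACS into six bins by GFP to DsRed ratio, PSI derived from sequencing read proportions per bin multiplied by bin number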
# assay setup: c terminus: a fixed tail appended
Assign class by protein stability index: not lower than 2 means Y; lower than 2 means N.

alteration | category
K5M | Y
M20G | Y
P1Q | Y
L24C | Y
S8Y | Y
S13W | Y
E22C | N
M15Q | Y
D17K | N
S9K | N
P3L | Y
L24Y | N
E14L | N
R7T | Y
W12E | Y
M20N | Y
R7S | Y
S9T | N
P1R | N
W12H | Y
P3Y | N
